Attribution: patent US20230235080A1

# study.system: T1, human Trop-2 on Trop-2 positive cancer cells (human, UniProt P09758 27-323)
# T1 sequence (looked up): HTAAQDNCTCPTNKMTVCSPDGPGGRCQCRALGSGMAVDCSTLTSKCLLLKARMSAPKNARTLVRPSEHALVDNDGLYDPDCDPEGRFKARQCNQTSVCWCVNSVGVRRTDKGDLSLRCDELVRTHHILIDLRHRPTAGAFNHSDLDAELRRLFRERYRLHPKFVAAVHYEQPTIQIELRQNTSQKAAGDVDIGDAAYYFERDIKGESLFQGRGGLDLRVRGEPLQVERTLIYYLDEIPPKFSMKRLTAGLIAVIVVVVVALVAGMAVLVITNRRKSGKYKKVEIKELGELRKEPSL
# assay.explanation: cell-based or functional assay
Label criterion not met if Internalization rate (flow cytometry, MDA-MB-468 cells) falls below 10%; label criterion met in every other case.

binder	class.label
humanized IgG #118-2-5 HuA/LuX (antibody, V domains shown, Full-length IgG expressed in HEK293-6E cells; also called 1 (HuA/LuX); IgG HuA/LuX) VH: QVQLQESGPGLVKPSETLSLTCTVSGFSLTSYGVNWIRQPPGKGLEWIGVMWAGGSTNYNSALMSRVTISVDTSKNQFSLKLSSVTAADTAVYYCARDENWDGAWFAYWGQGTLVTVSS VL: DIVMTQSPDSLAVSLGERATINCKSSQSLLNSGTRKNYLAWYQQKPGQPPKLLIYWASSRESGVPDRFSGSGSGTDFTLTISSLQAEDVAVYYCKQSYNLFTFGGGTKVEIK	criterion met
humanized IgG #118-2-5 HuD/LuY (antibody, V domains shown, Full-length IgG expressed in HEK293-6E cells; also called 8 (HuD/LuY)) VH: QVQLKESGPGLVAPSETLSITCTVSGFSLTSYGVNWIRQPPGKGLEWLGVMWAGGSTNYNSALMSRLTISKDTSKNQVSLKLSSVQAADTAMYYCARDENWDGAWFAYWGQGTLVTVSS VL: DIVMTQSPSSLAVSLGERATMSCKSSQSLLNSGTRKNYLAWYQQKPGQPPKLLISWASSRESGVPDRFSGSGSGTDFTLTISSVQAEDLAVYYCKQSYNLFTFGGGTKVEIK	criterion met
humanized IgG #118-2-5 HuC/LuY (antibody, V domains shown, Full-length IgG expressed in HEK293-6E cells; also called 7 (HuC/LuY)) VH: QVQLQESGPGLVKPSETLSLTCTVSGFSLTSYGVNWIRQPPGKGLEWIGVMWAGGSTNYNSALMSRLSISKDNSKSQVFLKMNSLQTDDTGMYYCARDENWDGAWFAYWGQGTLVTVSS VL: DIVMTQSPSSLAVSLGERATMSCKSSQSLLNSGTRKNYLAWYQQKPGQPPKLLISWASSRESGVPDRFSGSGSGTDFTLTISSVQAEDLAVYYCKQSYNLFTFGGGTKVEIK	criterion not met
#118-2-5 mouse H4-2/L3-3 (antibody, V domains shown, The label H4-2/L3-3 is not explained) VH: QVQLKQSGPGLVAPSQSLSITCTVSGFSLTSYGVNWIRQPPGKGLEWLGVMWAGGSTNYNSALMSRLSISKDNSKSQVFLKMNSLQTDDTGMYYCARDENWDGAWFAYWGQGTLVTVS VL: DIQMTQSPSSLAVSAGEKVTMSCKSSQSLLNSGTRKNYLAWYQQKPGQSPKLLISWASSRESGVPDRFTGSGSGTDFTLTISSVQAEDLAVYYCKQSYNLFTFGGGTKLELK	criterion met
humanized IgG #118-2-5 HuD/LuX (antibody, V domains shown, Full-length IgG expressed in HEK293-6E cells; also called 4 (HuD/LuX)) VH: QVQLKESGPGLVAPSETLSITCTVSGFSLTSYGVNWIRQPPGKGLEWLGVMWAGGSTNYNSALMSRLTISKDTSKNQVSLKLSSVQAADTAMYYCARDENWDGAWFAYWGQGTLVTVSS VL: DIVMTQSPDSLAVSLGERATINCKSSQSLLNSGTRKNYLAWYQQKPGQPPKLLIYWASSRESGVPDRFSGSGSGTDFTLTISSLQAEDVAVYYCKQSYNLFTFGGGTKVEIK	criterion not met
